Reference for the values: PubChem BioAssay AID2425

Test Target: Muscarinic acetylcholine receptor M1 (Rattus norvegicus) (UniProt P08482)
Sequence (P08482 whole entry, looked up): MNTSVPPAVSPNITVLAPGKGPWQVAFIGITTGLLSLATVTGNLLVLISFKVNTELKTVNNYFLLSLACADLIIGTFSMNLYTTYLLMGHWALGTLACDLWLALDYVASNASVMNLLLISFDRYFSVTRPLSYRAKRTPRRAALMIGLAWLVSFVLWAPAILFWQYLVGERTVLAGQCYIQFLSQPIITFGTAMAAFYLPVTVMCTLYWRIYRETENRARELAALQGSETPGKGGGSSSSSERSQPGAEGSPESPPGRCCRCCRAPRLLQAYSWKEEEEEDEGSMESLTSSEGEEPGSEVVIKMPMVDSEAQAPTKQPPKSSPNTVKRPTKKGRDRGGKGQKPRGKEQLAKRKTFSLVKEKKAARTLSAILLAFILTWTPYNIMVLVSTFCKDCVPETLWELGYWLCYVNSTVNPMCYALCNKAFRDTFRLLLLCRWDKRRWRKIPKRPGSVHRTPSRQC
Experiment Description: concentration-dependent potentiation of ACh at M1 – cell-based, calcium mobilization, CHO-K1, ACh EC20, dose response (AID 2425)
Details: CHO-K1 rat M1, Fluo-4 calcium, PAM with ACh EC20
pEC50: −log10 of the molar value.

[
  {
    "Structure Smiles": "Cc1cc(NC(=O)CS(=O)(=O)c2cn(Cc3cccc(Cl)c3)c3ccccc23)no1",
    "Test Target": "Muscarinic acetylcholine receptor M1 (Rattus norvegicus) (UniProt P08482)",
    "pEC50": 5.23
  }
]
